study.system: T1, recombinant mature dimeric myostatin (human and mouse (mature sequences 100% …, UniProt O08689 268-376))
T1 construct: also called GDF-8; mature myostatin
T1 sequence: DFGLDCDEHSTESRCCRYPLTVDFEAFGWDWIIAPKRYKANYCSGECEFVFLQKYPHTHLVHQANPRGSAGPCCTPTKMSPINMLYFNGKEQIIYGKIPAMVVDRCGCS
assay: myostatin competition ELISA, direct capture of myostatin, competitor 10B3
readout.type: rank among the five most potent, top (1) to bottom (5) (rank)
Express your answer in rank, writing the number without its unit.

Previously resolved entries follow.
H2L2-C91S_V102N (antibody, V domains shown) VH: QVQLVQSGAEVKKPGASVKVSCKASGYSFTGYFMHWVRQAPGQGLEWMGNIYPYNGVSNYNQRFKARVTMTTDTSTSTAYMELRSLRSDDTAVYYCARRYYYGTGPADWYFDNWGQGTLVTVSS VL: DIQMTQSPSSLSASVGDRVTITCKASQDINSYLSWFQQKPGKAPKSLIYRANRLVDGVPSKFSGSGSGTDYTLTISSLQPEDFATYYCLQSDEFPLTFGQGTKLEIKR    3
H2L2-C91S_P100B_F (antibody, V domains shown) VH: QVQLVQSGAEVKKPGASVKVSCKASGYSFTGYFMHWVRQAPGQGLEWMGNIYPYNGVSNYNQRFKARVTMTTDTSTSTAYMELRSLRSDDTAVYYCARRYYYGTGFADWYFDVWGQGTLVTVSS VL: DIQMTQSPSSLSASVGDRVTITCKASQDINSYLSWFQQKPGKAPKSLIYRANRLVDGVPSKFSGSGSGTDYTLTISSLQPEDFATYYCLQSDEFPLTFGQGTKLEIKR    1
H2L2-C91S_P100B_I (antibody, V domains shown) VH: QVQLVQSGAEVKKPGASVKVSCKASGYSFTGYFMHWVRQAPGQGLEWMGNIYPYNGVSNYNQRFKARVTMTTDTSTSTAYMELRSLRSDDTAVYYCARRYYYGTGIADWYFDVWGQGTLVTVSS VL: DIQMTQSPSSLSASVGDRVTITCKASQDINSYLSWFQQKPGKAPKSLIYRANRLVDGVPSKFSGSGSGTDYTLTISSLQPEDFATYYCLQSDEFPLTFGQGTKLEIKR    5

In the following, a different binder is considered.
*Q* For the binder shown here, H2L2-C91S_V102S (antibody, V domains shown) VH: QVQLVQSGAEVKKPGASVKVSCKASGYSFTGYFMHWVRQAPGQGLEWMGNIYPYNGVSNYNQRFKARVTMTTDTSTSTAYMELRSLRSDDTAVYYCARRYYYGTGPADWYFDSWGQGTLVTVSS VL: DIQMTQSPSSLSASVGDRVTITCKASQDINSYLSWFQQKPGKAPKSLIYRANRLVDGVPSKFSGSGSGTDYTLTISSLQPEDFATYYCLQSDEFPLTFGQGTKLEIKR , give the reported rank among the five most potent, top (1) to bottom (5).
*A* 4
